testSystem: T1, human TNFR2 extracellular domain with C-terminal 10×His tag (human, UniProt P20333 23-257)
T1 construct: also called huTNFR2-His; His-tag-huTNFR2
T1 sequence: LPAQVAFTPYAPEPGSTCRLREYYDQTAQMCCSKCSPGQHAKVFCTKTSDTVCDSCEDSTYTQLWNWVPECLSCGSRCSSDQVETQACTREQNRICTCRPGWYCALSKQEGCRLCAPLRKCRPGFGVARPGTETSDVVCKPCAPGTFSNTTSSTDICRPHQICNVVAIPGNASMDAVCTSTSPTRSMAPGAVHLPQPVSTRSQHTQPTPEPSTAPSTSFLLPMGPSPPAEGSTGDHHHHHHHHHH
runDescription: BLI (Octet RED96), antibody captured on AHC biosensor, His-tagged TNFR2 in solution, 1:1 model
Field: kon. Provide a value for each of the binders that follow.
Just the number plus its unit, please.

Use the examples below as a reference point.
>>> result("6F12 chimeric anti-TNFR2 antibody (antibody, V domains shown, Chimeric: mouse variable domains with human constant regions, made as recombinant IgG1) VH: QIQLVQSGPELKKPGETVKISCKTSGYTFTIYGMNWVKQAPGKGLKWMGWIHTYTGEPTYADDFKGRFVFSLETSDSTAYLQINNLKSEDMATYFCVRRERYGSFWGQGTLVTVSA VL: DIVLTQSPASLAVSLGQRATISCTASQSVDYGGVSYMNWYQQKPGQPPKLLIYGASNQESGIPVRFSGSGSGTDFTLNIHPVEEEDAATYYCQQSNEDPPTFGAGTKLELK")
"239000 M⁻¹ s⁻¹"
>>> result("11C1 chimeric anti-TNFR2 antibody (antibody, V domains shown, Chimeric: mouse variable domains with human constant regions, made as recombinant IgG1) VH: DVQLRESGPGLVTPSQSLSLTCSVTGYSITSGYYWNWIRQIPGNKLEWMGYITYDGNNNYDPSLKNRISITRDTSKNQFFLTLNSVTSEDTATYYCARGDYGDSAMDYWGQGTSVTVSS VL: EIVLTQSPAITAASLGQKVTITCSASSSVSYMHWYQQKSGTSPKPWIYEISKLASGVPARFSGSGSGTSYSLIISSMEAEDAAIYYCQQWNYPLITFGAGTKLELK")
"105000 M⁻¹ s⁻¹"
>>> result("15H10 chimeric anti-TNFR2 antibody (antibody, V domains shown, Chimeric: mouse variable domains with human constant regions, made as recombinant IgG1) VH: DVQLQESGPGLVTPSQSLSLTCSVTGYSITSGYYWNWIRQFPGNKLEWMGYITYDGNNNYNPSLKSRFSITRDTSKNQFFLKLNSVTSEDTATYYCARGDYGDSAMDYWGQGTSVTVSS VL: EIVLTQSPAITAASLGQKVTITCSASSGVNYMHWYQQKSGTSPKPWIYEISKLASGVPARFSGSGSGTSYSLTISSMEAEDAAIYYCQQWNYPLITFGAGTKVELK")
"57100 M⁻¹ s⁻¹"
>>> result("85G8.4 chimeric anti-TNFR2 antibody (antibody, V domains shown, Chimeric: mouse variable domains with human constant regions, made as recombinant IgG1) VH: EVQLQQSGPELVKPGASVKISCKTSGYTFTDFNMDWVKQSHGKSLEWIGYINPNNGDAAYNQKFKSKATLTVDKSSNTAYMELHSLTSDDSAVYYCARWGWAFAYWGQGTLVTVSA VL: DIVMTQSHKIMSTSVGDRVSITCKASQDVKTAVAWYQQKPGQSPKLLIYATSYRYTGVPDRFTGSGSGTDFTFTISTVQAEDLAVYYCQQHYSIPYTFGGGTKLEIK")
"129000 M⁻¹ s⁻¹"
>>> result("102E4 chimeric anti-TNFR2 antibody (antibody, V domains shown, Chimeric: mouse variable domains with human constant regions, made as recombinant IgG1) VH: EVLLQQSGAELVRPGASVKLSCTASGFNIKDDFIHWVQQRPEQGLEWIGRINPSNANTEYAPKFQDKATITTDTSSNTAYLQLSSLTSEDTAVYYCTRNDGYYDGLFYWGQGTTLTVSS VL: DIVMTQSHKFMSSSVGDRVSITCKASQDVGTAVAWYQQKPGQSPKLLIYWASTRHTGVPDRFTGSGSGTDFTLTISNVQSEDLADYFCQQYSSYPFTFGSGTKLEIK")
"439000 M⁻¹ s⁻¹"

Now let's try a different one.
Q: Item under review: 29G3 chimeric anti-TNFR2 antibody (antibody, V domains shown, Chimeric: mouse variable domains with human constant regions, made as recombinant IgG1) VH: EVMLVESGGASVKPGGSLKLSCAASGFTFSNFAMSWVRQTPEKRLEWVATIRSGDNYSYYSDNVKGRFTISRDNARNTLYLQMSSLRSKDTSIYYCARNWDKVFDYWGQGTTLTVSS VL: DIVLTQSPASLAVSLGQRATISCRASESVDSYGYSFMHWYQQKPGQPPKLLIYRASNLKSGIPARFSGSGSRTDFTLTINPVEADDVATYYCQQSNEDHTFGGGTKLEIK . Reported kon?
A: 251000 M⁻¹ s⁻¹
